biological target: Cytochrome P450 2C19 (Homo sapiens) (UniProt P33261); experiment: blockers of cytochrome P450 2C19 activity – biochemical, luminescence, ADME assay, primary screen (AID 778); conditions: CYP2C19 Supersomes, luciferin-H EGE luminescence, 30 min; at 5 µM
Sequence (P33261 whole entry, looked up): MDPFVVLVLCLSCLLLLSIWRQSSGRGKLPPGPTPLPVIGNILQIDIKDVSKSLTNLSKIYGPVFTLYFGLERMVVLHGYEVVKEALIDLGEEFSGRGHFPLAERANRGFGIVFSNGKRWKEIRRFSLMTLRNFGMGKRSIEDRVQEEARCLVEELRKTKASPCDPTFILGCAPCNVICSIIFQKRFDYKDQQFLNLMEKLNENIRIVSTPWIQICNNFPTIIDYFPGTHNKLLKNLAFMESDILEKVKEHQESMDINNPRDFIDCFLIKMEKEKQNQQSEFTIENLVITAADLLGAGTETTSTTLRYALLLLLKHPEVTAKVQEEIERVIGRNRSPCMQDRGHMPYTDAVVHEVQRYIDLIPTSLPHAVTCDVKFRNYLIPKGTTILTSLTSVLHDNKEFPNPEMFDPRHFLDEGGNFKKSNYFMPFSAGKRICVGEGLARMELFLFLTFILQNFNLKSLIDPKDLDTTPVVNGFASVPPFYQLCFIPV
Screen size: about 96,000 compounds; about 20,000 (21%) were called active.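 How the source made its calls: active means CYP2C19 inhibition above a set limit at 5 µM in the primary screen (cut at about 50% in these data); inactive means the rest.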 A selection follows.
Pick one: y for active, n for inactive

Example entries and their recorded answers appear below.
- CN(C(=O)CC(NC(=O)c1ccccc1)(c1ccccc1)c1ccccc1)c1ccccc1: n
- Cc1ccc(Oc2nc3ccccc3n3c(C)nnc23)cc1: n
- Cc1ccc(S(=O)(=O)N2CCN(C(=O)CCC(=O)NC3CCCc4ccccc43)CC2)cc1 (centres undefined): n
- O=c1cc(N2CCN(Cc3ccccc3)CC2)c(-c2ccccc2)n[nH]1: n
- COc1ccc(Cl)cc1S(=O)(=O)Nc1cccc(C(=O)O)c1: n

Consider the record given below.
Problem: I would be grateful if you could indicate the recorded call for `Cc1cc(C)cc(OCc2nnc(SCC(=O)Nc3ccccc3)o2)c1` .
Solution: n
